Numbers sourced from paper PMC9127371.

target: T1, p85α nSH2 R358M (human, UniProt P27986 325-430, R358M); assay: fluorescence polarisation; SH2 domain titrated into 5-FAM-labelled peptide (20 nM CD28, YSLV, pYSLV; 40 nM YSLM, pYSLM), 298 K, 96-well plates, single site binding isotherm; settings: both partners purified
T1 construct: PI3K regulatory subunit p85α, human, N-terminal SH2 domain, residues 325-430, with R358M; also called R358M variant; R358M SH2–null mutant; source: E. coli, purified
T1 sequence (P27986 325-430 R358M): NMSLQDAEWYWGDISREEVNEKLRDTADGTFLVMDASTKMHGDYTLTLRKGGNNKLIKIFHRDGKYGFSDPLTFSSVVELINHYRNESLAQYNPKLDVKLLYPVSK
Square brackets hold non-standard residues; d marks the D form. Ends that are not written are not given here. * marks the point of attachment. 5FAM = O=C1OC2(c3ccc(O)cc3Oc3cc(O)ccc32)c2ccc(C(=O)*)cc21; pY = N[C@@H](Cc1ccc(OP(=O)(O)O)cc1)C(=O)O
recorded metric: pKd
In textbook form, pKd equals minus log to base ten of the concentration in mol/L.

Write down pKd measured for item 5FAM-TEDQ[pY]SLMEDE (also called β peptide; p85β (pYSLM) peptide; source: synthetic peptide; bought: Cambridge Research Biochemicals) [[5-FAM]-TEDQ-[pY]-SLMEDE, phosphorylated peptide based on p85β]
5.54
